- Tested on: Mycobacterium tuberculosis
- protocol notes: Antimycobacterial activity against Mycobacterium bovis BCG carrying pMV261::ethR
- Format: functional
- test parameters: Mycobacterium tuberculosis variant bovis BCG

[
  {
    "compound": "N.S=C(S)N1CCCC1",
    "MIC, µg/mL": 0.25
  },
  {
    "compound": "CC(=O)N[C@@H]1[C@@H](O)[C@H](O)[C@@H](CO)O[C@H]1SC(=S)N(C)C",
    "MIC, µg/mL": 10
  },
  {
    "compound": "CC(=O)N[C@@H]1[C@@H](O)[C@H](O)[C@@H](CO)O[C@H]1SC(=S)N1CCCC1",
    "MIC, µg/mL": 1
  },
  {
    "compound": "CCc1cc(C(N)=S)ccn1 [ETHIONAMIDE]",
    "MIC, µg/mL": 10
  }
]
